Biological target: T1, human Dectin-1 (biosensor tests of Tables 3, 4A and 9; construct not stated) (human, UniProt Q9BXN2 66-247, limits assumed)
T1 construct: also called hDectin-1
T1 sequence (looked up): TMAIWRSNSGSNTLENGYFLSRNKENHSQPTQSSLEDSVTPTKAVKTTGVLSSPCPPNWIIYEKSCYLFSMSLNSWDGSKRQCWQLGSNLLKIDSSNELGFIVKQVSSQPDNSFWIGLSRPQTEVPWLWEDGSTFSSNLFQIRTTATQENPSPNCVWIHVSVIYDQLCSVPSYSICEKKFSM
Test: Octet response
reported-metric: X = 290
Numbers only.

binder: 2M24A.1.21 (Fab, V domains shown, Fab; also called 2M24.1.21) VH: QVQLVQSGAEVKKPGASVKVSCKSSGYTFTDYYIHWVRQAPGQGLEWMGWINPNSGDTNYAQKFQGRITMTRDTSISTAYLELSRLRSDDTAVFYCARNSGSYSFAYWGQGTLVTVSS VL: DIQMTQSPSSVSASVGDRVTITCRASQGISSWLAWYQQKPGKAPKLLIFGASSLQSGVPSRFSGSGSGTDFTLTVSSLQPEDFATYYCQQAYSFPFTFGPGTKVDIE
measured-value: 0.125

Pending binder:
So, 2M24A.1.19 (Fab, V domains shown, Fab; also called 2M24.1.19) VH: QVQLVQSGAEVKKPGASVKVSCKSSGYTFTDYYIHWVRQAPGQGLEWMGWINPNSGDTNYAQKFQGRITMTRDTSISTAYLELSRLRSDDTAVFYCARNSGSYAFGYWGQGTLVTVSS VL: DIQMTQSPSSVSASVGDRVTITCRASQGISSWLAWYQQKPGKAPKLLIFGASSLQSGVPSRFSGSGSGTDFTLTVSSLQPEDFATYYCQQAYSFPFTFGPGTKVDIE ? Its X = 290 was 0.126
